- Tested on: HT-1080
- protocol: Modulatory profiling: Alamar Blue viability, lethal compound cotreated with death modulator (EC50, AUC)
- Type: cell-based
- Design: unit not given beside the values
- conditions_used: HT-1080, modulator NAD+
For each of the compounds below, state its AUC HT.NAD+.
Lab note: write the figure by itself, no unit.

Given CN(C)CCCOS(=O)(=O)c1ccc(N2CCC(c3ccc(Cl)cc3)=N2)cc1 [CIL40] , state its recorded AUC HT.NAD+.
−0.04749

Now consider O=C(/C=C/c1cccc(NC(=O)c2cccs2)c1)c1ccccc1 [CIL33] and answer again.
−0.0189

Now consider CCc1ccc(/C=C2/SC(=O)N(CCC(C)NCCCN3CCOCC3)C2=O)cc1 (stereo not drawn) [CIL46] and answer again.
−0.06754

Now consider COc1cccc2c1C(=O)c1c(O)c3c(c(O)c1C2=O)C[C@@](O)(C(=O)CO)C[C@@H]3O[C@H]1C[C@H](N)[C@H](O)[C@H](C)O1 [Doxorubicin] and answer again.
0.1872

Now consider Nc1ccccc1NC(=O)c1ccc(CNC(=O)OCc2cccnc2)cc1 [MS275] and answer again.
0.0008794

Now consider CC[C@@]1(O)C(=O)OCc2c1cc1n(c2=O)Cc2cc3ccccc3nc2-1 [Camptothecin] and answer again.
0.06078

Now consider CC[C@]1(O)C[C@H]2CN(CCc3c([nH]c4ccccc34)[C@@](C(=O)OC)(c3cc4c(cc3OC)N(C=O)[C@H]3[C@@](O)(C(=O)OC)[C@H](OC(C)=O)[C@]5(CC)C=CCN6CC[C@]43[C@@H]65)C2)C1 [Vincristine] and answer again.
0.1699

Now consider [O-][N+]1=c2ccc(Nc3ccccc3)cc2=NC12CCCCC2 [CIL66] and answer again.
−0.01106

Now consider O=C(Oc1ccc(Cl)c2cccnc12)c1ccco1 [CIL58] and answer again.
−0.06539

Now consider C[S+]([O-])c1nc(-c2ccc(Br)cc2)cc(-c2ccccc2)c1C#N (stereo not drawn) [CIL17] and answer again.
0.04423

Now consider Cc1[nH]c2c(ccc3ccccc32)c1C1C(CCN)C1(C)C (stereo not drawn) [CIL74] and answer again.
0.07664

Now consider CCC(C(NNC(=O)c1ccc(C(F)(F)F)cc1)c1ccc(C(F)(F)F)cc1)[N+](=O)O (stereo not drawn) [CIL88] and answer again.
0.007478

Now consider N/C(Cc1ccc(Cl)cc1)=N\OC(=O)c1cccc2ccccc12 [CIL70] and answer again.
0.04321

Now consider CN(C)CCNC(=O)c1cc2c(s1)-c1ccc(Cl)cc1SC2 [CIL55] and answer again.
0.03996

Now consider C[C@H]1CCC[C@]2(C)C[C@H]3OC(=O)[C@H](CN4CCCC4)[C@H]3C=C12 [CIL80] and answer again.
0.01251

Now consider CC1=CC(C)(C)Nc2ccc(OC(=O)c3ccco3)cc21 [CIL2] and answer again.
0.04925

Now consider COC(=O)[C@@H]1Cc2c([nH]c3ccccc23)C(C)(C)N1C(=O)CCl [CIL79] and answer again.
−0.004292

Now consider CC1CC2=C(CC1CNCCCN(C)C)C(C)(C)CCC2 (stereo not drawn) [CIL26] and answer again.
−0.01406

----------
- System: HT-1080
- protocol: Modulatory profiling: Alamar Blue viability, lethal compound cotreated with death modulator (EC50, AUC)
- Assay type: cell-based
- conditions_used: HT-1080, modulator CspA
For each of the compounds below, state its AUC HT.CspA.
Lab note: write the figure by itself, no unit.

Given CCOc1ccccc1-n1c(C(C)N2CCN(C(=O)COc3ccc(Cl)cc3)CC2)nc2ccccc2c1=O (stereo not shown) [erastin, reference compound] , state its recorded AUC HT.CspA.
0.02449

Now consider "CS[C@H]1SC[C@H]2C(=O)N(C)[C@@H](C(C)C)C(=O)OC[C@@H](NC(=O)c3cnc4ccccc4n3)C(=O)N[C@@H](C)C(=O)N(C)[C@@H]1C(=O)N(C)[C@@H](C(C)C)C(=O)OC[C@@H](NC(=O)c1cnc3ccccc3n1)C(=O)N[C@@H](C)C(=O)N2C" and answer again.
−0.08426

Now consider "N/C(=N\OC(=O)C12CC3CC(CC(C3)C1)C2)c1ccccc1" and answer again.
9.4409E−05

Now consider "O=C(/C=C/c1cccc(NC(=O)c2cccs2)c1)c1ccccc1" and answer again.
−0.03213

Now consider CC1CC(C)(C)Nc2ccc(OC(=O)c3ccco3)cc21 (stereo not shown) and answer again.
−0.04696

Now consider "O=C1c2ccccc2-c2onc3ccc(Oc4ccccc4)c1c23" and answer again.
−0.01275

Now consider "O=c1c(Cl)c(Cl)cnn1-c1ccc(Cl)c(C(F)(F)F)c1" and answer again.
0.01073

Now consider "CC1=CC(C)(C)Nc2ccc(OC(=O)c3cccnc3)cc21" and answer again.
0.01761

Now consider CCc1ccc(/C=C2/SC(=O)N(CCC(C)NCCCN3CCOCC3)C2=O)cc1 (stereo not shown) and answer again.
0.0003356

Now consider "Cc1cccc(-n2ncc(Cl)c(Cl)c2=O)c1" and answer again.
−0.03611

----------
For each of the compounds below, state its AUC HT.Gd3+.
- Tested on: HT-1080
- protocol: Modulatory profiling: Alamar Blue viability, lethal compound cotreated with death modulator (EC50, AUC)
- Format: cell-based
- conditions_used: HT-1080, modulator Gd3+

Record lookup: for HT-1080, what AUC HT.Gd3+ belongs to O=C1c2ccccc2-c2onc3ccc(Oc4ccccc4)c1c23 [CIL6] ?
−0.02897

Now consider COc1cccc2c1C(=O)c1c(O)c3c(c(O)c1C2=O)C[C@@](O)(C(=O)CO)C[C@@H]3O[C@H]1C[C@H](N)[C@H](O)[C@H](C)O1 [Doxorubicin] and answer again.
0.03741

Now consider C[C@@H]1C[C@@H]([C@H](O)CC2CC(=O)NC(=O)C2)C(=O)[C@@H](C)C1 [cycloheximide, Cycloheximide, reference compound] and answer again.
0.002991

Now consider COC(=O)[C@@H]1Cc2c([nH]c3ccccc23)C(C)(C)N1C(=O)CCl [CIL79] and answer again.
−0.02579

Now consider Cc1ccc(O)c(/N=C/C=C/c2cccc(Br)c2)c1 [CIL27] and answer again.
−0.0168

Now consider COC(=O)c1ccc([C@@H]2c3[nH]c4ccccc4c3C[C@@H](C(=O)OC)N2C(=O)CCl)cc1 [RSL3, reference compound] and answer again.
−0.01265

Now consider CCOc1ccccc1-n1c(C(C)N2CCN(C(=O)COc3ccc(Cl)cc3)CC2)nc2ccccc2c1=O (centres unmarked) [erastin, reference compound] and answer again.
−0.01326

Now consider COc1ccccc1/C=C/C1(C(=O)NC2CCCC2)CC(=O)N1c1ccc(F)cc1 (centres unmarked) [CIL1] and answer again.
−0.03215

Now consider O=S1(=O)Nc2c(ccc3cccnc23)-c2ccccc21 [CIL67] and answer again.
−0.01945

Now consider CC(C)=CCCC1=CCC(CNCCCN(C)C)C(C)C1 (centres unmarked) [CIL28] and answer again.
−0.02583

Now consider COc1cc([C@@H]2c3cc4c(cc3[C@@H](O[C@@H]3O[C@@H]5CO[C@@H](C)O[C@H]5[C@H](O)[C@H]3O)[C@H]3COC(=O)[C@H]23)OCO4)cc(OC)c1O [Etoposide] and answer again.
0.02668

Now consider CS[C@H]1SC[C@H]2C(=O)N(C)[C@@H](C(C)C)C(=O)OC[C@@H](NC(=O)c3cnc4ccccc4n3)C(=O)N[C@@H](C)C(=O)N(C)[C@@H]1C(=O)N(C)[C@@H](C(C)C)C(=O)OC[C@@H](NC(=O)c1cnc3ccccc3n1)C(=O)N[C@@H](C)C(=O)N2C [Echinomycin] and answer again.
0.01526

Now consider O=C(/C=C/c1cccc(NC(=O)c2cccs2)c1)c1ccccc1 [CIL33] and answer again.
−0.02182

Now consider Cc1[nH]c2c(ccc3ccccc32)c1C1C(CCN)C1(C)C (centres unmarked) [CIL74] and answer again.
−0.008213

Now consider COc1ccc(-n2nnnc2S(=O)(=O)CC(=O)N2CCCCC2)cc1 [CIL48] and answer again.
−0.003556

Now consider CCC(C(NNC(=O)c1ccc(C(F)(F)F)cc1)c1ccc(C(F)(F)F)cc1)[N+](=O)O (centres unmarked) [CIL88] and answer again.
−0.03651

Now consider COc1c2c(cc3c1C(CC(=O)/C=C/c1ccccc1)[N+](C)(C)CC3)OCO2 (centres unmarked) [CIL77] and answer again.
−0.0368

Now consider O=C(Oc1ccc(Cl)c2cccnc12)c1ccco1 [CIL58] and answer again.
−0.004674

Now consider [N-]=[N+]=[N-].[Na+] [NaN3] and answer again.
−0.004604

Now consider O=C(CCCCCN1C(=O)c2cccc3cccc(c23)C1=O)NO [Scriptaid] and answer again.
−0.02176

Now consider CC[C@@]1(O)C(=O)OCc2c1cc1n(c2=O)Cc2cc3ccccc3nc2-1 [Camptothecin] and answer again.
0.02887

Now consider CC1CC2=C(CC1CNCCCN(C)C)C(C)(C)CCC2 (centres unmarked) [CIL26] and answer again.
−0.005334

Now consider CC1CC(C)(C)Nc2ccc(OC(=O)c3ccco3)cc21 (centres unmarked) [CIL4] and answer again.
−0.009953

Now consider CC(C)C[C@H](NC(=O)[C@H](Cc1ccccc1)NC(=O)c1cnccn1)B(O)O [Bortezomib] and answer again.
−0.02823

Now consider C(=N\Nc1nc2ccccc2s1)/c1ccccn1 [CIL52] and answer again.
−0.006922

Now consider CCCS(=O)(=O)c1nnnn1-c1cccc(OC)c1 [CIL15] and answer again.
−0.03881

Now consider O=C1C(Cl)=C(N2CCOCC2)C(=O)C(Cl)=C1N1CCOCC1 [CIL11] and answer again.
−0.0298

Now consider Cc1cc(C)c2c(=O)n(CC(=O)NCCCN3CCN(c4ccccc4F)CC3)sc2n1 [CIL50] and answer again.
−0.03877

Now consider CC1=CC(C)(C)Nc2ccc(OC(=O)c3ccco3)cc21 [CIL2] and answer again.
−0.02304

Now consider CN(C)CCNC(=O)c1cc2c(s1)-c1ccc(Cl)cc1SC2 [CIL55] and answer again.
−0.01479

Now consider COC(C)(C)C#CC(=O)c1cccc2ccccc12 [CIL34] and answer again.
−0.02283

Now consider N/C(=N\OC(=O)C12CC3CC(CC(C3)C1)C2)c1ccccc1 [CIL41] and answer again.
−0.02592

Now consider [O-][N+]1=c2ccc(Nc3ccccc3)cc2=NC12CCCCC2 [CIL66] and answer again.
−0.01757

Now consider O=S(=O)(c1ccc2c(c1)C(=NO)c1cc(S(=O)(=O)N3CCCCC3)ccc1-2)N1CCCCC1 [CIL56] and answer again.
−0.01542

Now consider COC(=O)c1[nH]c2ccc(Br)cc2c1NC(=O)CN1CCN(C2CCCCC2)CC1 [CIL71] and answer again.
−0.01552
